src = patent US8404258B2

System: healthy volunteers (bent side of the forearm)
assay_procedure: 24 hour-occlusion patch test (Finn Chamber) of the original specimen
Format: in vivo, human
measurement_setup: evaluation time 48 hrs; 46 persons; 0.03 ml original specimen
measure_name: Positive ++ (Moderately positive: erythema + edema), number of subjects

CC(COC(=O)C(C)(C)C)OCC(C)OCC(C)OC(=O)C(C)(C)C (stereo not shown) [Example 1, Tripropyleneglycol dineopentanoate] : 0

I = CC(COC(=O)C(C)(C)C)OCC(C)OC(=O)C(C)(C)C (stereo not shown) [Example 2, Dipropyleneglycol dineopentanoate]
II = CCCCCCCCC(=O)OCCCCCCC(C)C [compound 3, Isononyl nonanoate, reference compound]
For the pair I and II , which entry has the numerically smaller recorded Positive ++ (Moderately positive: erythema + edema), number of subjects? I would appreciate it if you answered with the label of your choice.
I
(I: 0, II: 5)

* * *

System: healthy volunteers (bent side of the forearm)
assay_procedure: 24 hour-occlusion patch test (Finn Chamber) of the original specimen
Assay type: in vivo, human
measurement_setup: evaluation time 24 hrs; 46 persons; 0.03 ml original specimen
Procedure: “Test Method Using Patch Test” The test was conducted using a Finn Chamber (8 mm in diameter) with 24 hour-occlusion. Test subjects were 46 male and female healthy volunteers (33 males and 13 females) whose ages range from 22 to 59 (average 42); 0.03 ml of the original specimen of alkylene polyglycol dineopentanoate was applied on the bent side of the forearm of the test subjects for 24 hours. […]
measure_name: Positive ratio (%)

In the examples that follow, each entry is paired with its recorded Positive ratio.
CC(COC(=O)C(C)(C)C)OCC(C)OC(=O)C(C)(C)C (stereo not shown) [Example 2, Dipropyleneglycol dineopentanoate] : 0
CC(COC(=O)C(C)(C)C)OCC(C)OCC(C)OCC(C)OC(=O)C(C)(C)C (stereo not shown) [Example 3, Tetrapropyleneglycol dineopentanoate] : 0

a = CC(COC(=O)C(C)(C)C)OCC(C)OCC(C)OC(=O)C(C)(C)C (stereo not shown) [Example 1, Tripropyleneglycol dineopentanoate]
b = CCCCCCCCC(=O)OCCCCCCC(C)C [compound 3, Isononyl nonanoate, reference compound]
Between a and b , which one has the lower reported Positive ratio value? Record your answer as the label of the chosen record.
a
(a: 0%, b: 22%)

* * *

System: healthy volunteers (bent side of the forearm)
assay_procedure: 24 hour-occlusion patch test (Finn Chamber) of the original specimen
Type: in vivo, human
measurement_setup: evaluation time 48 hrs; 46 persons; 0.03 ml original specimen
measure_name: Positive ratio (%)

CC(COC(=O)C(C)(C)C)OCC(C)OCC(C)OCC(C)OC(=O)C(C)(C)C (stereo not shown) [Example 3, Tetrapropyleneglycol dineopentanoate] : 0
CC(COC(=O)C(C)(C)C)OCC(C)OC(=O)C(C)(C)C (stereo not shown) [Example 2, Dipropyleneglycol dineopentanoate] : 0

1 = CC(COC(=O)C(C)(C)C)OCC(C)OCC(C)OC(=O)C(C)(C)C (stereo not shown) [Example 1, Tripropyleneglycol dineopentanoate]
2 = CCCCCCCCC(=O)OCCCCCCC(C)C [compound 3, Isononyl nonanoate, reference compound]
Would you kindly point out which of 1 and 2 has the smaller Positive ratio figure? # reply format: chosen label
1
(1: 0%, 2: 20%)

* * *

Tested on: healthy volunteers (bent side of the forearm)
assay_procedure: 24 hour-occlusion patch test (Finn Chamber) of the original specimen
Format: in vivo, human
measurement_setup: evaluation time 24 hrs; 46 persons; 0.03 ml original specimen
measure_name: Equivocal ± (mild erythema), number of subjects

Some molecules with known Equivocal ± (mild erythema), number of subjects results, for comparison:
CC(COC(=O)C(C)(C)C)OCC(C)OCC(C)OCC(C)OC(=O)C(C)(C)C (stereo not shown) [Example 3, Tetrapropyleneglycol dineopentanoate] : 0
CC(COC(=O)C(C)(C)C)OCC(C)OC(=O)C(C)(C)C (stereo not shown) [Example 2, Dipropyleneglycol dineopentanoate] : 0

a = CC(COC(=O)C(C)(C)C)OCC(C)OCC(C)OC(=O)C(C)(C)C (stereo not shown) [Example 1, Tripropyleneglycol dineopentanoate]
b = CCCCCCCCC(=O)OCCCCCCC(C)C [compound 3, Isononyl nonanoate, reference compound]
Hello, I am sorting some records. Could you say if a or b has the smaller Equivocal ± (mild erythema), number of subjects value? Answer format: the label of the selected item.
a
(a: 0, b: 5)
